All figures here come from ChEMBL document CHEMBL4513216.

For each of the molecules below, state its cytotoxicity at 10 µM.
- Assay name: Toxicity liver stage against HepG2, at 10uM
- Assay type: cell-based
- Set-up: test concentration 10 uM, cell line HepG2-A16-CD81EGFP
- Run conditions: human, HepG2-A16-CD81EGFP cells; read-out: INHIBITION
Give bare numbers, in %.

Look up cytotoxicity at 10 µM for the entries below, preserving their order.
1. CNC(=O)c1ccc2c(c1O)OC(C)(C)C2
2. Cc1nnc(CCNC(=O)c2coc(CN3CCOCC3)c2)s1
3. CCc1nccn1C1CCCN(C(=O)c2ccc(C(N)=O)cn2)C1 (stereo not drawn)
4. CS(=O)(=O)CCC(=O)N(CCc1cccc(F)c1)C1CC1
5. CCOC(=O)[C@H]1[C@@H](O)C(=O)N(C)C12CCN(C(=O)OC)CC2
6. CC1Cc2cc(-c3cncn3CC(=O)NC(C)(C)C)ccc2N1C (stereo not drawn)
7. Cc1nc(CNC2CCc3nc(C(C)C)nn3C2)oc1C (stereo not drawn)

Response:
-6.08
-9.21
1.89
-5.82
-0.817
-40.5
-4.1

Look up cytotoxicity at 10 µM for the entries below, preserving their order.
1. COc1ccc(C(=O)C2CCCN(Cc3ccc(C)o3)C2)c(OC)c1 (stereo not drawn)
2. O=C(O)c1ccc2c(c1)C1(CCCCC1)CN2C(=O)c1ccnnc1
3. NS(=O)(=O)c1cnc(NCC2(c3cccc(F)c3)CCOCC2)s1
4. Cc1cc(C(=O)N2C[C@@H]3COC[C@]3(COCc3cccnc3)C2)no1
5. CC1CCN(C(CNC(=O)CCn2cccn2)c2cccs2)CC1 (stereo not drawn)

Response:
[1.17, 3.59, -5.71, -16.1, 13.5]

Look up cytotoxicity at 10 µM for the entries below, preserving their order.
1. CN(C)C(=O)c1cc(-c2ccncc2)[nH]n1
2. CN(Cc1cccs1)C(=O)CN(C)C1CCc2ccccc21 (stereo not drawn)
3. Cc1ccc(CNc2ccccc2-n2ccc(C)n2)nc1
4. Cc1nccn1CCCC(=O)N1CCN(c2cccnc2)CC1
5. CC(C)(C)CC(=O)NS(=O)(=O)c1ccc(F)cc1C(F)(F)F

Response:
1: 0.676; 2: 10.1; 3: 5.7; 4: -4.98; 5: -4.3

Look up cytotoxicity at 10 µM for the entries below, preserving their order.
1. CC(C)OCCCNC(=O)CS(=O)(=O)Cc1ccc(Cl)c(Cl)c1
2. COc1cncc(-n2nc(C)c(CC(C)=O)c2C)c1
3. CC(C)CN1CCC(c2nnc(CN3CCCC3)n2C2CC2)CC1
4. CN(C)C(C(=O)NCc1cc(C(C)(C)C)n[nH]1)c1ccc(F)cc1 (stereo not drawn)
5. Cc1cccc(CN2CCC(C3Nc4ccccc4S(=O)(=O)N3)CC2)n1 (stereo not drawn)
6. Cc1cc2[nH]c(CN3CCOC(C(F)(F)F)C3)cc(=O)n2n1 (stereo not drawn)
7. CC(C)c1nccn1CCCNC(=O)c1ccc(-c2cn[nH]c2)nc1

Response:
1: -9.7; 2: -12.8; 3: -8.85; 4: -5.54; 5: -18.9; 6: -21.2; 7: -5.84

###

- Assay name: Toxicity liver stage against HepG2, at 10uM
- Assay type: cell-based
- Parameters: test concentration 10 uM, cell line HepG2-A16-CD81EGFP
- Run conditions: human, HepG2-A16-CD81EGFP cells; read-out: INHIBITION
For each of the compounds below, state its cytotoxicity at 10 µM.
Answers are plain numbers, in %.

Compound | Quantity name | U | Experimental result
CCc1nc(CCNC(=O)NC2CC2)sc1C | cytotoxicity at 10 µM | % | -14.4
CCn1ncc(CN2CCN(C(=O)Cn3cc(Br)c(C)n3)CC2)c1C | cytotoxicity at 10 µM | % | 0.301
CCCc1cc(N2CCCC2Cn2nc(C)nc2C)n2ncnc2n1 (centres undefined) | cytotoxicity at 10 µM | % | -0.82

Look up cytotoxicity at 10 µM for the entries below, preserving their order.
1. CC(C)c1noc(CC[C@@H]2CCCN3CCCC[C@H]23)n1
2. CN(C)C(=O)COCc1cncc2c1CCN(Cc1nccn1C)C2
3. COc1cc(C)nc(N2CCN(C(=O)CN(C)C(C)C)CC2)n1

Response:
1: -0.143; 2: -7.61; 3: -14.6

Look up cytotoxicity at 10 µM for the entries below, preserving their order.
1. COCCNC(=O)C1CN(Cc2ccsc2)Cc2ccnn2C1 (centres undefined)
2. COC(=O)CC(c1ccccc1)c1oc(C)cc(=O)c1O (centres undefined)
3. Cc1nc(C)n(CC(=O)N2CCc3ncc(Cl)cc3C2)n1
4. O=C(CCCc1ccc(Cl)cc1)N1CCN(C(=O)c2ccc[nH]2)CC1
5. Cc1ccc(N2CCCC3(CCN(C(=O)CC(F)(F)F)C3)C2)nn1 (centres undefined)
6. O=C(c1cc(C2CC2)on1)N1CC[C@]2(C[C@H](Oc3cccnc3)CO2)C1
7. O=C(c1cccc(-n2cccn2)c1)N1CCCOC(CN2CCCC2)C1 (centres undefined)
8. CC(c1ccc(F)cc1F)N1CCN(CCN2CCCC2=O)CC1 (centres undefined)

Response:
[-6.07, 26.7, -18.8, 10.7, -108, -9.63, -7.33, -5.61]
